What fraction unbound was measured for each of the following?
assay: Unbound fraction in rat plasma; format: ADME, cell-free

Data request: Would you mind telling me what fraction unbound value was observed for Cc1cc(N2C[C@H]3CC[C@@H](C2)[C@@H]3Nc2nc3n(n2)CCCN3c2cc(F)cc(F)c2)ncn1 ?
Data returned: 0.014

Data request: Entry Cc1cc(N2C[C@H]3CC[C@@H](C2)[C@@H]3Nc2nc3n(n2)CCCC[C@H]3c2ccc(F)c(F)c2F)ncn1 : reported fraction unbound = ?
Data returned: 0.014

----------
experiment: Solubility of compound by LYSA assay; type: physicochemical
quantity: solubility (µg/mL)
Give the quantity in µg/mL, number only.

Data request: Give its solubility value. Item: COc1cc(N2C[C@H]3CC[C@@H](C2)[C@@H]3Nc2nc3n(n2)CCCN3c2ccc(F)c(F)c2)ccn1
Data returned: 11

Data request: Which solubility value belongs to Cc1noc(N2C[C@H]3CC[C@@H](C2)[C@@H]3Nc2nc3n(n2)CCCN3c2ccc(F)c(F)c2)n1 ?
Data returned: 158

Data request: Given the entry Cc1cc(N2C[C@H]3CC[C@@H](C2)[C@@H]3Nc2nc3n(n2)CCCN3c2cc(F)cc(F)c2)ncn1 , report its measured solubility.
Data returned: 6

Data request: Fill in the blank: the reported solubility of COc1cc(N2C[C@H]3CC[C@@H](C2)[C@@H]3Nc2nc3n(n2)CCCCC3c2ccc(F)c(F)c2F)ccn1 (mixture of isomers) is ____.
Data returned: 3.2

Data request: Quick one: solubility of Cc1cc(N2C[C@H]3CC[C@@H](C2)[C@@H]3Nc2nc3n(n2)CCCCC3c2ccc(F)c(F)c2F)ncn1 (mixture of isomers) ?
Data returned: 0.7

Data request: I have this compound here, Cc1cc(N2C[C@H]3CC[C@@H](C2)[C@@H]3Nc2nc3n(n2)CCCCC3c2ccc(F)c(F)c2F)cnn1 (mixture of isomers) , and I need its recorded solubility.
Data returned: 188

Data request: Given the compound Cc1cc(N2C[C@H]3CC[C@@H](C2)[C@@H]3Nc2nc3n(n2)CCCN3c2ccc(F)c(F)c2)cnn1 , what is its reported solubility?
Data returned: 131

Data request: Which solubility reading was recorded for the compound Cc1cc(N2C[C@H]3CC[C@@H](C2)[C@@H]3Nc2nc3n(n2)CCCCC3c2cccc(C(F)(F)F)c2)ncn1 (mixture of isomers) ?
Data returned: 34

Data request: Bench note: what solubility did Cc1cc(N2C[C@H]3CC[C@@H](C2)[C@@H]3Nc2nc3n(n2)CCCN3c2ccc(F)c(F)c2)ncn1 show?
Data returned: 161

Data request: Which solubility value belongs to Fc1ccc(C2CCCCn3nc(N[C@@H]4[C@@H]5CC[C@H]4CN(c4cnnc(Cl)c4)C5)nc32)c(F)c1F (mixture of isomers) ?
Data returned: 14

----------
biological target: Gamma-secretase; experiment: Modulation of gamma secretase in human H4 cells overexpressing human APP695 harboring K595N/M596L Swedish double mutant assessed as reduction in total amyloid beta (1 to 42 residues) production measured after 24 hrs by AlphaLISA assay; assay type: cell-based
Would you mind telling me the reported log10 of IC50 of each entry?
# log10 transformed; quantity=IC50; unit=nM

Data request: Query: log10 of IC50; subject: COc1cc(N2C[C@H]3CC[C@@H](C2)[C@@H]3Nc2nc3n(n2)CCCN3c2ccc(F)c(F)c2)ccn1
Data returned: 1.20

Data request: What does the record list as log10 of IC50 for Cc1noc(N2C[C@H]3CC[C@@H](C2)[C@@H]3Nc2nc3n(n2)CCCCC3c2ccc(F)c(F)c2F)n1 (mixture of isomers) ?
Data returned: 1.64

Data request: What value of log10 of IC50 has been reported for the following compound? Fc1ccc(C2CCCCn3nc(N[C@@H]4[C@@H]5CC[C@H]4CN(c4ccnc(C(F)(F)F)c4)C5)nc32)c(F)c1F (mixture of isomers)
Data returned: 1.49

Data request: Which log10 of IC50 is reported for this compound? Cc1nnc(N2C[C@H]3CC[C@@H](C2)[C@@H]3Nc2nc3n(n2)CCCC3c2ccc(F)c(F)c2F)o1 (mixture of isomers)
Data returned: 2.37

Data request: Can you look up the measured log10 of IC50 of Cc1nnc(N2C[C@H]3CC[C@@H](C2)[C@@H]3Nc2nc3n(n2)CCCCC3c2ccc(F)c(F)c2F)o1 (mixture of isomers) for me?
Data returned: 1.69

Data request: log10 of IC50 for Cc1cc(N2C[C@H]3CC[C@@H](C2)[C@@H]3Nc2nc3n(n2)CCCCC3c2cccc(C(F)(F)F)c2)ncn1 (mixture of isomers) ?
Data returned: 1.28

Data request: Reported log10 of IC50, compound Cc1cc(N2C[C@H]3CC[C@@H](C2)[C@@H]3Nc2nc3n(n2)CCCN3c2ccc(F)c(F)c2)ncn1 : ____
Data returned: 1.40

Data request: Given the entry Cc1cc(N2C[C@H]3CC[C@@H](C2)[C@@H]3Nc2nc3n(n2)CCCCN3c2ccc(C(F)(F)F)cc2)ncn1 , report its measured log10 of IC50.
Data returned: 1.28

Data request: Reported log10 of IC50 for Cc1noc(N2C[C@H]3CC[C@@H](C2)[C@@H]3Nc2nc3n(n2)CCCN3c2ccc(F)c(F)c2)n1 : what is it?
Data returned: 1.51

Data request: So what does the record say about log10 of IC50 for Cc1cc(N2C[C@H]3CC[C@@H](C2)[C@@H]3Nc2nc3n(n2)CCCN3c2ccc(F)c(F)c2)cnn1 ?
Data returned: 1.36

Data request: # input compound: FC(F)(F)c1cccc(C2CCCCn3nc(N[C@@H]4[C@@H]5CC[C@H]4CN(c4cnnc(Cl)c4)C5)nc32)c1 (mixture of isomers) ; wanted: its log10 of IC50
Data returned: 1.49

Data request: Returns the measured log10 of IC50 for the input compound. Input: COc1cc(N2C[C@H]3CC[C@@H](C2)[C@@H]3Nc2nc3n(n2)CCCCC3c2cccc(C(F)(F)F)c2)cnn1 (mixture of isomers)
Data returned: 1.60

Data request: Can you share its log10 of IC50? I mean this compound: Fc1ccc(C2CCn3nc(N[C@@H]4[C@@H]5CC[C@H]4CN(c4ccnc(C(F)(F)F)c4)C5)nc32)cc1F (stereo not given in full)
Data returned: 1.94

Data request: Which log10 of IC50 is listed for Cc1cc(N2C[C@H]3CC[C@@H](C2)[C@@H]3Nc2nc3n(n2)CCCN3c2ccc(C(F)(F)F)cc2)ncn1 ?
Data returned: 1.04

Data request: Return reported log10 of IC50; argument: Cc1cc(N2C[C@H]3CC[C@@H](C2)[C@@H]3Nc2nc3n(n2)CCCCC3c2ccc(F)c(F)c2F)ncn1 (mixture of isomers)
Data returned: 1.18
